PROCEDURE_SUMMARY: JC-1 mitochondrial signal, unstimulated adipocytes – cell-based, JC-1 fluorescence, 3T3-L1 adipocytes, 24 h, 100 nL compound, profiling panel (AID 1168); also: test concentration not given here
TEST_CONDITIONS: JC-1 mitochondrial fluorescence, higher = more signal, called active from +8 up or from −8 down
Quick reference: z-score of the listed items.
Just the number, please, no unit attached.

CCCCCC1=C2CNC(Cc3ccccc3)(C(=O)OC)C=C2C(C)C1=O (configuration not stated) : -1.55
C=C(CCCC)C(=O)CC[C@H](OC(=O)c1ccccc1-c1ccccc1C(=O)O)c1ccc(OCCO)cc1 : -0.245
CC1CC/C=C\[C@H]2OC34C=CCN(c5ccc(Cl)cc5)C(=O)[C@H]3N(CCCCCCO)C(=O)[C@]4(C)C2C(=O)O1 (some centres not stated) : 0.115
CCC(CC)C(O)C1C=CC2C(=O)N(c3ccccc3)C(=O)C2N1Nc1ccccc1F (configuration not stated) : -0.147

Noted for `C=CCNC(=O)[C@H]1[C@@H]2C(=O)O[C@@H](c3ccccc3)[C@@H](c3ccccc3)N2[C@@H](c2ccccc2OCCO)[C@]12C(=O)N(C(=O)OCCOC)c1ccc(C#Cc3ccc(OC)cc3)cc12` : its z-score reads 3.69

The compound `O=C1C[C@@](C(=O)O)(c2ccc([N+](=O)[O-])cc2)[C@@H](c2ccc(CO)cc2)N1C1CCCCC1` showed z-score equal to -1.22

Per the record, `CCOC(=O)C[C@H]1[C@H](OC(=O)c2ccccc2-c2ccccc2)[C@@H](NC(=O)c2ccc3ccccc3c2)c2cc(OCCCO)ccc2N1C(=O)Cc1ccc(OC)cc1` has z-score of 0.367

====

TGT: Dihydroorotate dehydrogenase (quinone), mitochondrial (Plasmodium falciparum (isolate 3D7)) (UniProt Q08210)
Sequence (Q08210 whole entry, looked up): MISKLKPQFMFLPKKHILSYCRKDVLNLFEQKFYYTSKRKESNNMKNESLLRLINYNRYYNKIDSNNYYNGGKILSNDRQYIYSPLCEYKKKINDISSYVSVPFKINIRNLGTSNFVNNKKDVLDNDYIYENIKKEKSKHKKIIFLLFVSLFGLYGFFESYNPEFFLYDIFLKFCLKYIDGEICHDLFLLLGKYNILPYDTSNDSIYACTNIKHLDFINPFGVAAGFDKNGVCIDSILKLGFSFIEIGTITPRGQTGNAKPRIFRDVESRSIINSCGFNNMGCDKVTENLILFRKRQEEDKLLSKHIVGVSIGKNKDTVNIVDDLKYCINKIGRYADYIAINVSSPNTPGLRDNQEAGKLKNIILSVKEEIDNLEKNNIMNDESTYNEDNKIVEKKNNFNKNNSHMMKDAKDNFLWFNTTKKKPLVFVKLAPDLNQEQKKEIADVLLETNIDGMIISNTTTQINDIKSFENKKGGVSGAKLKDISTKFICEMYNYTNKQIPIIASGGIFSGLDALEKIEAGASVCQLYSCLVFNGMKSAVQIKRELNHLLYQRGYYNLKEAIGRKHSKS
PROCEDURE_SUMMARY: inhibition of P. falciparum DHODH – biochemical, C-terminal His tag, absorbance 600 nm, primary screen (AID 1175);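 also: recombinant parasite enzyme with a five histidine tag at its C terminus; test concentration not given here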
TEST_CONDITIONS: PfDHODH enzyme, DCIP absorbance 600 nm; higher = more signal, called active from +8 up or from −8 down
Calls of active or inactive are those of the source.
composite z-score values for the molecules below.

O=C1C2C=CC(C(O)c3cccs3)N(Nc3ccc([N+](=O)[O-])cc3)C2C(=O)N1c1ccccc1 (centres undefined) : -1.63 (inactive)
C=CCN1C(=O)[C@]2(O[C@H](CCn3cc([C@H](O)c4ccccc4)nn3)[C@@H]([Si](C)(C)c3ccc(OC)cc3)[C@@H]2C)c2cc(NC(=O)c3ccc(OC)cc3)ccc21 : 0.717 (inactive)
CCCCCC1=C2CNC(CC(C)C)(C(=O)OC)C=C2C(C)C1=O (centres undefined) : -1.09 (inactive)

// sample C=CCC(OC(C)=O)[C@@H]1[C@@H](N(Cc2ccc(-c3cccc(C(F)(F)F)c3)o2)C(=O)c2ccc(-c3ccccc3)cc2)c2cc(OCCCO)ccc2N1C(=O)c1ccc2ccccc2c1 (some centres undefined) , its composite z-score was -0.0636 (inactive)

// field: composite z-score; key: `COCCOC(=O)N1C(=O)[C@@]2(c3cc(C#CCCO)ccc31)[C@H](c1ccc(OCCO)cc1)N1[C@H](c3ccccc3)[C@H](c3ccccc3)OC(=O)[C@H]1[C@@H]2C(=O)N1CCCCCCC1` ; value = -0.0613 (inactive)

The measured composite z-score associated with `CC(=O)NCCCC[C@@H]1NC(=O)[C@H]2C[C@@H](C(=O)NCCCCCCNC(=O)CS)[C@@H](c3cccc(OCCO)c3)N2C1=O` reads 0.929 (inactive)

Looking up `COc1cc(CO)cc(I)c1O[C@H]1C=C(C(=O)NCCO)C[C@@H](NC2CCCCCC2)[C@@H]1O` , I see its composite z-score listed as 1.11 (inactive)

The measured composite z-score associated with `O=C(NCc1ccc(F)cc1)[C@H]1C[C@H]2C(=O)N3CCC[C@H]3C(=O)N2[C@H]1c1ccc(O)cc1` reads -1.47 (inactive)

`CCOC(=O)C[C@H]1[C@H](OC(=O)c2cc3ccccc3oc2=O)[C@@H](NC(=O)CC(C)C)c2cc(OCCCO)ccc2N1C(=O)Cc1ccc(OC)cc1` yielded composite z-score of -0.144 (inactive)

====

PROCEDURE_SUMMARY: calcein-AM signal in unstimulated myeloma cells – cell-based, calcein-AM fluorescence, 48 h, PK04 Diversity Set, profiling panel (AID 1166);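 also: cells grown under basal conditions without added stimulus; test concentration not given here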
TEST_CONDITIONS: RPMI8226 myeloma viability, higher = more signal
As shown below, each of these compounds has a reported z-score value.

Study these solved cases before continuing.
O=C1[C@H]2C=C(I)[C@H](C[C@@H]2OCCCCCCO)[C@@]12CO2 : -0.273
COCCOC(=O)N1C(=O)[C@@]2(c3cc(C#Cc4ccc(OC)cc4)ccc31)[C@H](c1ccc(OCCO)cc1)N1[C@H](c3ccccc3)[C@H](c3ccccc3)OC(=O)[C@H]1[C@@H]2C(=O)NC[C@H](O)c1ccccc1 : -1.48
C=CC1c2cc(O)c(OC)cc2CCN1C (stereo not drawn) : 0.212
CC(C)NC(=O)[C@@H]1c2ccccc2C(=O)N(Cc2ccccc2C(F)(F)F)[C@H]1c1ccc(CO)cc1 : 0.749
CC(C)NC(=O)[C@@]1(c2ccc([N+](=O)[O-])cc2)CC(=O)N(CC23CC4CC(CC(C4)C2)C3)[C@@H]1c1ccc(CO)cc1 : -3.8
COc1ccc([Si](C)(C)[C@H]2[C@H](CC(=O)N3Cc4ccccc4C[C@H]3CO)O[C@@]3(C(=O)N(C)c4ccccc43)[C@@H]2C)cc1 : -4.05
COC(=O)[C@@]1(Cc2ccccc2)[C@H]2c3cc(C(=O)N(C)C)n(CCO)c3C[C@H]2CN1C(=O)c1ccccc1 : -1.99
C=CCOC(=O)[C@H]1[C@@H]2C(=O)O[C@@H](c3ccccc3)[C@@H](c3ccccc3)N2[C@@H](c2ccc(OCCOC(=O)[C@H]3C[C@H]4C(=O)N[C@@H](CC(C)C)C(=O)N4[C@H]3c3ccc(O)cc3)cc2)[C@]12C(=O)Nc1ccccc12 : 0.34

z-score measured on `COc1ccc(C(=O)Nc2cccc(CN3C(=O)[C@@]4(O[C@@H](CC(=O)N5CCC[C@H]5CO)[C@H]([Si](C)(C)c5ccc(OC)cc5)[C@H]4C)c4ccccc43)c2)cc1` = -4.26

Reported z-score ( `CC(C)N1C(=O)C[C@@](C(=O)NCCN2CCOCC2)(c2ccc([N+](=O)[O-])cc2)[C@H]1c1ccc(CO)cc1` ) = 0.0859

z-score for `O=C1[C@@H]2[C@@H](CC(COc3ccccc3)=C([C@H](O)CCc3ccccc3)[C@@H]2CO)C(=O)N1Cc1ccccc1` is -3.48

Recorded z-score (compound C=CCC(OC(C)=O)[C@@H]1[C@@H](N(Cc2cccc3ccccc23)C(=O)Cc2ccc(OC)cc2)c2cc(OCCCO)ccc2N1C(=O)Cc1ccc2ccccc2c1 (stereo partly drawn) ): -1.36

Just so you know, measured z-score for `COCCOC(=O)N1C(=O)[C@@]2(c3cc(C#CCCO)ccc31)[C@H](c1ccc(OCCO)cc1)N1[C@H](c3ccccc3)[C@H](c3ccccc3)OC(=O)[C@H]1[C@@H]2C(=O)N1CCCCCCC1` came out at -1.03

====

PROCEDURE_SUMMARY: small molecules captured by biotinylated probe aFGF2 – biochemical, small-molecule microarray, fluorescence 635/667, stem cell growth factor project, primary screen (AID 1067);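 also: measures binding of biotinylated aFGF2 protein to printed compounds on slides; z-score merges feature fluorescence and signal-to-noise across triplicate slides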
TEST_CONDITIONS: higher = more signal
composite z-score of -0.06 or higher: 1. Under -0.06: 0.

# count of solved cases: 2
COCCCN1C(=O)[C@@]2(c3ccc([N+](=O)[O-])cc3)CC(=O)N(CC34CC5CC(CC(C5)C3)C4)[C@@H]2c2ccc(CO)cc21 : 0
[N-]=[N+]=Nc1ccccc1C[C@]1(C(=O)N2CCOCC2)N=C(c2ccc(OCCCO)cc2)O[C@H]1c1ccccc1N=[N+]=[N-] : 1

Is reported composite z-score greater than or equal to -0.06 here: CC(C)(C)N1CC=CC23O[C@@H]4/C=C\CCCOC(=O)C4[C@H]2C(=O)N(CCCCCO)[C@@H]3C1=O (stereo not given in full) 0

Please tell me: is the compound COc1ccc(C(O)C2C=CC3C(=O)N(C)C(=O)C3N2N(c2ccccc2)c2ccccc2)cc1 (stereo not given) at or over -0.06 in terms of composite z-score? 1

I'd appreciate it if you could say whether `C=C(COC)/C(=C/C[C@@H](OC(C)=O)c1ccccc1OCCO)c1cnc2ccccc2c1` has composite z-score at least equal to -0.06. 0

Hi, just wondering whether `C#CCN1[C@@H](Cc2ccccc2)C(=O)O[C@H](Cc2ccccc2)[C@@H]1/C=C/C1CC1` shows composite z-score of -0.06 or higher. 0

Confirm if composite z-score reported for the compound CC(C)C(O)C1C=CC2C(=O)NC(=O)C2N1Nc1ccccn1 (stereo not given) is -0.06 or above. 1
